# protocol_description: inhibitors of larval lipid processing in zebrafish, primary screen, whole organism, PED6 fluorescence, gall bladder and intestine (AID 686);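 also: larvae 5 to 7 days old with five fish per well; signal comes from phospholipase A2 cleavage of quenched PED6 carried via bile; overnight exposure to compound and PED6 before scoring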
# condition_label: Zebrafish larvae PED6 lipid processing, fluorescence scoring; screened at 20 µM (by protocol)
Activity calls are given as the source filed them.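 The calls were made as follows: active = a full or partial loss of lipid-probe fluorescence in the fish gall bladder, intestine or both, judged by eye; inactive = no fluorescence loss, or compound toxic to the fish.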
Return exactly one item of active, inactive

Solved entries:
COc1ccc(C2Nc3ccccc3C(=O)N2Cc2ccco2)cc1CN1C(=O)c2ccccc2C1=O (centres undefined)    inactive
Cc1ccc(-n2ncc3c(NCCCOC(C)C)ncnc32)c(C)c1    inactive
CCOc1ccccc1C(=O)NCCCCCC(=O)O    inactive

What classification did CC(C)(C)c1cc(-c2ccco2)c(C#N)c(SCC#N)n1 end up with in this test?
inactive
